test: self-splicing fitness, log relative to wild type (ln ratio); higher = more splicing; Tetrahymena group I intron in knt gene, E. coli kanamycin selection, DiMSum; sequences stand for … in CUCUCU…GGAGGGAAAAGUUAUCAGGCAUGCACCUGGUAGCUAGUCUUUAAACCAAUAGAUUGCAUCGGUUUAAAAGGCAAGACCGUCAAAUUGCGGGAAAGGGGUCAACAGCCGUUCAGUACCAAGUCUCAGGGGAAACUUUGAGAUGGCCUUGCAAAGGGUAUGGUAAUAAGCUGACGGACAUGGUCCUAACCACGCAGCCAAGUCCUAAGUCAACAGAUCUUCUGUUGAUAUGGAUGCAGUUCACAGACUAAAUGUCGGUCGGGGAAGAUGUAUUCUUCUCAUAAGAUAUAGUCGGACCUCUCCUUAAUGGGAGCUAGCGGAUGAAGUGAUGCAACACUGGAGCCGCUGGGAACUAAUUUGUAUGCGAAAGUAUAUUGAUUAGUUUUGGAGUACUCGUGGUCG; settings: 30 °C;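 also: selection with 25 µg/mL kanamycin versus none on LB agar overnight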
readout label: self-splicing fitness (ln)
When you answer, write just the number.

Worked examples follow.
{"columns": ["entry sequence", "self-splicing fitness (ln)"],
 "data": [
  ["UGCUAGCAAUAUUACGGACC", 0.158],
  ["GAUAAGCAAUAUUACGCAUA", -0.919],
  ["UCGCAGCAAUAUUACGGAGU", -2.32],
  ["AAUUAGCAAUAUUACGGCGG", -1.81],
  ["UCAUAGCAAUAUUACGUGUG", -1.8]
]}

Kindly indicate its recorded self-splicing fitness (ln). Item: GUUUAGCAAUAUUACGAAUU -2.25

For the sequence ACGCAGCAAUAUUACGUCAA , give its measured self-splicing fitness (ln) value. -3.09

Indicate the recorded self-splicing fitness (ln) value for this sequence: ACCCAGCAAUAUUACGAUAG -3.3

Complete the entry with self-splicing fitness (ln) for GCCUAGCAAUAUUACGUUGA -1.54

Assign self-splicing fitness (ln) to the following record: CUGAAGCAAUAUUACGGAAU -3.01

Give a short answer stating reported self-splicing fitness (ln) for GAAUAGCAAUAUUACGGUUU . -1.03

Answer with reported self-splicing fitness (ln) of UCCCAGCAAUAUUACGACCA -1.65

* * *

test: self-splicing fitness, log relative to wild type (ln ratio); higher = more splicing; Tetrahymena group I intron in knt gene, E. coli kanamycin selection, DiMSum; sequences stand for … in CUCUCU…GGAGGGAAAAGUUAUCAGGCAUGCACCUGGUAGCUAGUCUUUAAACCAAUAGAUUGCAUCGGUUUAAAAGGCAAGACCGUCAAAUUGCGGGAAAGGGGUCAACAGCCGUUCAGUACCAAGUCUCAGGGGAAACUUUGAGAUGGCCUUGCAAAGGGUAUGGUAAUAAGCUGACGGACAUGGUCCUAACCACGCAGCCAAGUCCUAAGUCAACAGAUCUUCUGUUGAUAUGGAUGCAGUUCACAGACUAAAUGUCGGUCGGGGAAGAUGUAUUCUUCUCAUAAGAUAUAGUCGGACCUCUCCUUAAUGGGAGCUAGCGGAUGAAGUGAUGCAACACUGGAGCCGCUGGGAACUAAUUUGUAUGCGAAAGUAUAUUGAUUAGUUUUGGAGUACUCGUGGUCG; conditions: 37 °C
readout label: self-splicing fitness (ln)
Answer with a number only.

These recorded examples may help you get a feel for the data.
{"columns": ["entry sequence", "assay result"],
 "data": [
  ["UCCAAGCAAUAUUACGUCUC", -2.02],
  ["UCCGAGCAAUAUUACGACAC", -2.33],
  ["CAACAGCAAUAUUACGCAUU", -1.79]
]}

State its self-splicing fitness (ln) for this sequence: UAUAAGCAAUAUUACGCCCA -0.495
